organism: Rattus norvegicus; assay: DrugMatrix - Regimen: Daily Repeat; assay type: toxicity, organism-based, Sprague-Dawley; parameters: regimen Daily Repeat, gender Male, age 6-8 weeks; details: in vivo, po, 0 mg/kg, 72 h, tissue Blood, route oral GAVAGE, dose level Control, time 3 day, vehicle 100 % WATER
metricName: MEAN CORPUSCULAR VOLUME (fL)
Note: unit fL is implicit; provide only the numeric part.

Consider the following illustrative entries.
{"molecule": "Fc1ccc([C@@H]2CCNC[C@H]2COc2ccc3c(c2)OCO3)cc1", "valueUnits": "fL", "MEAN CORPUSCULAR VOLUME": 62.53}
{"molecule": "Clc1ccc(C(c2ccccc2Cl)C(Cl)Cl)cc1 (stereo unspecified)", "valueUnits": "fL", "MEAN CORPUSCULAR VOLUME": 64.85}

Please list MEAN CORPUSCULAR VOLUME recorded for the molecule `COc1cc2c(N3CCN(C(=O)Nc4ccc(OC(C)C)cc4)CC3)ncnc2cc1OCCCN1CCCCC1` 70.05

Please list MEAN CORPUSCULAR VOLUME recorded for the molecule `NCC1(CC(=O)O)CCCCC1` 64.93

Please list MEAN CORPUSCULAR VOLUME recorded for the molecule COc1ccc(C(CN(C)C)C2(O)CCCCC2)cc1 (stereo unspecified) 63.25

Please list MEAN CORPUSCULAR VOLUME recorded for the molecule `NC(=O)c1ncn([C@@H]2O[C@H](CO)[C@@H](O)[C@H]2O)n1` 63.7

----------
species on record: Rattus norvegicus; experiment: DrugMatrix - Regimen: Daily Repeat; type: toxicity, organism-based, Sprague-Dawley; parameters: regimen Daily Repeat, gender Male, age 6-8 weeks; settings: in vivo, po, 1500 mg/kg, 72 h, tissue Blood, route oral GAVAGE, dose level High, time 3 day, vehicle .5 % CMC
Reported LYMPHOCYTE values are given for each entry in this list.

{"molecule": "O=C1CCc2cc(OCCCCc3nnnn3C3CCCCC3)ccc2N1", "LYMPHOCYTE": "82.9%"}
{"molecule": "CCOC(=O)[C@H](CCc1ccccc1)N[C@@H](C)C(=O)N1[C@H](C(=O)O)C[C@@H]2CCC[C@@H]21", "LYMPHOCYTE": "93%"}
{"molecule": "COC(=O)c1ccc(O)cc1", "LYMPHOCYTE": "82.67%"}

API: the following record is the query input.
Please list LYMPHOCYTE recorded for the molecule NS(=O)(=O)c1cc2c(cc1Cl)NCNS2(=O)=O [HYDROCHLOROTHIAZIDE] 90%

----------
organism: Rattus norvegicus; test: DrugMatrix - Regimen: Daily Repeat; assay type: toxicity, organism-based, Sprague-Dawley; parameters: regimen Daily Repeat, gender Male, age 6-8 weeks; settings: in vivo, po, 0 mg/kg, 72 h, tissue Blood, route oral GAVAGE, dose level Control, time 3 day, […]
We use 9% as the dividing line for NEUTROPHIL: on or above the line is Yes, below is No.

Worked set:
{"compound": "CN(C)CCCC1(c2ccc(F)cc2)OCc2cc(C#N)ccc21 (centres undefined)", "qualitativeLabel": "Yes"}
{"compound": "CSc1ccc2c(c1)N(CCC1CCCCN1C)c1ccccc1S2 (centres undefined)", "qualitativeLabel": "No"}
{"compound": "CC1=C(/C=C/C(C)=C/C=C/C(C)=C\\C(=O)O)C(C)(C)CCC1", "qualitativeLabel": "Yes"}

Form field: NEUTROPHIL at least 9%? Entry: CCCC[C@@H](CC)COC(=O)c1ccccc1C(=O)OC[C@@H](CC)CCCC [BIS(2-ETHYLHEXYL)PHTHALATE] No

Form field: NEUTROPHIL at least 9%? Entry: CC(C)n1c(/C=C/C(O)CC(O)CC(=O)O)c(-c2ccc(F)cc2)c2ccccc21 (centres undefined) Yes

Form field: NEUTROPHIL at least 9%? Entry: CC(C)(Oc1ccc(CCNC(=O)c2ccc(Cl)cc2)cc1)C(=O)O [BEZAFIBRATE] Yes

Form field: NEUTROPHIL at least 9%? Entry: `COc1ccc2c(c1)c(CC(=O)OCC(=O)O)c(C)n2C(=O)c1ccc(Cl)cc1` Yes

Form field: NEUTROPHIL at least 9%? Entry: `Oc1c(Cl)cc(Cl)cc1Sc1cc(Cl)cc(Cl)c1O` Yes

----------
species: Rattus norvegicus; assay: DrugMatrix - Regimen: Daily Repeat; type: toxicity, organism-based, Sprague-Dawley; set-up: regimen Daily Repeat, gender Male, age 6-8 weeks; conditions: in vivo, po, 0 mg/kg, 72 h, tissue Blood, route oral GAVAGE, dose level Control, time 3 day, vehicle .5 % CMC
Reported PLATELET COUNT values are given for each entry in this list.
Note: unit x10E3/uL is implicit; provide only the numeric part.

{"compound": "C=C1CC[C@H](O)C/C1=C/C=C1\\CCC[C@]2(C)[C@@H]([C@H](C)/C=C/[C@H](C)C(C)C)CC[C@@H]12", "PLATELET COUNT [x10E3/uL]": 1082.33}
{"compound": "CN1C(C(=O)Nc2ccccn2)=C(O)c2ccccc2S1(=O)=O", "PLATELET COUNT [x10E3/uL]": 1264.4}
{"compound": "NCC(=O)O", "PLATELET COUNT [x10E3/uL]": 1074.83}
{"compound": "O=C1CCc2cc(OCCCCc3nnnn3C3CCCCC3)ccc2N1", "PLATELET COUNT [x10E3/uL]": 1378.2}
{"compound": "CCc1cccc2c3c([nH]c12)C(CC)(CC(=O)O)OCC3 (stereo not drawn)", "PLATELET COUNT [x10E3/uL]": 1217.17}
{"compound": "Cc1c(-c2ccccc2)oc2c(C(=O)OCCN3CCCCC3)cccc2c1=O [FLAVOXATE]", "PLATELET COUNT [x10E3/uL]": 1188.5}

Please list PLATELET COUNT recorded for the compound CCOC(=O)OC(C)OC1=C(C(=O)Nc2ccccn2)N(C)S(=O)(=O)c2ccccc21 (stereo not drawn) 994.17

Please list PLATELET COUNT recorded for the compound `CC(/C=C1\SC(=S)N(CC(=O)O)C1=O)=C\c1ccccc1` 1118.17

Please list PLATELET COUNT recorded for the compound `C[C@]12CCC(=O)C=C1CC[C@@H]1[C@@H]2C(=O)C[C@@]2(C)[C@H]1CC[C@]2(O)C(=O)CO` 1217.17

Please list PLATELET COUNT recorded for the compound `CC[C@H]1OC(=O)[C@H](C)[C@@H](O[C@H]2C[C@@](C)(OC)[C@@H](O)[C@H](C)O2)[C@H](C)[C@@H](O[C@@H]2O[C@H](C)C[C@H](N(C)C)[C@H]2O)[C@](C)(O)C[C@@H](C)/C(=N\OCOCCOC)[C@H](C)[C@@H](O)[C@]1(C)O` 1217.17

Please list PLATELET COUNT recorded for the compound CCc1ccc(C(=O)C(C)CN2CCCCC2)cc1 (stereo not drawn) 1184.67

Please list PLATELET COUNT recorded for the compound `CCC[C@@H]1C[C@@H](C(=O)N[C@@H]([C@H]2O[C@H](SC)[C@H](O)[C@@H](O)[C@H]2O)[C@@H](C)O)N(C)C1` 1250.83

Please list PLATELET COUNT recorded for the compound COc1c(C)c2c(c(O)c1C/C=C(\C)CCC(=O)OCCN1CCOCC1)C(=O)OC2 [MYCOPHENOLATE MOFETIL] 1118.17

----------
Reported MEAN CORPUSCULAR VOLUME values are given for each entry in this list.
species on record: Rattus norvegicus; assay: DrugMatrix - Regimen: Daily Repeat; assay type: toxicity, organism-based, Sprague-Dawley; design: regimen Daily Repeat, gender Male, age 6-8 weeks; details: in vivo, po, 0 mg/kg, 72 h, tissue Blood, route oral GAVAGE, dose level Control, time 3 day, vehicle .5 % CMC
Note: unit fL is implicit; provide only the numeric part.

{"molecule": "COC(=O)c1ccc(O)cc1 [METHYLPARABEN]", "valueUnits": "fL", "MEAN CORPUSCULAR VOLUME": 63.88}
{"molecule": "CCc1ccc(C(=O)C(C)CN2CCCCC2)cc1 (stereo not given) [EPERISONE]", "valueUnits": "fL", "MEAN CORPUSCULAR VOLUME": 63.4}
{"molecule": "CN1CCC[C@@H]1CCO[C@](C)(c1ccccc1)c1ccc(Cl)cc1 [CLEMASTINE]", "valueUnits": "fL", "MEAN CORPUSCULAR VOLUME": 64.42}
{"molecule": "CC(/C=C1\\SC(=S)N(CC(=O)O)C1=O)=C\\c1ccccc1", "valueUnits": "fL", "MEAN CORPUSCULAR VOLUME": 64.42}

API: the following record is the query input.
Please list MEAN CORPUSCULAR VOLUME recorded for the molecule CCOC(=O)OC(C)OC1=C(C(=O)Nc2ccccn2)N(C)S(=O)(=O)c2ccccc21 (stereo not given) [AMPIROXICAM] 62.82
